biological target: MOR-1 (untagged) (Mus musculus, UniProt P42866)
Sequence (P42866 whole entry): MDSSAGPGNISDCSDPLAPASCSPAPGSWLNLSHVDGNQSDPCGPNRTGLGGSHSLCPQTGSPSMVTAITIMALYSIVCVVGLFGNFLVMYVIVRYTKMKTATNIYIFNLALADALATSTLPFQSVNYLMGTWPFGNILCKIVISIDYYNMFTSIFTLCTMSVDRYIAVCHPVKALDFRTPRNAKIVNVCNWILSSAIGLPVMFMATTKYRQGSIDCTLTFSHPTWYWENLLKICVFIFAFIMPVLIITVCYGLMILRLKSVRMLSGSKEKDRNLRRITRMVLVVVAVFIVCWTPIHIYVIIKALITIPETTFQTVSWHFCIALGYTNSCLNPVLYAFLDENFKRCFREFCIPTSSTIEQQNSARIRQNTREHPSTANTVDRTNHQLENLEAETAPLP

- compound: "O=C(N[C@@H]1CC[C@@]2(O)[C@H]3Cc4ccc(O)c5c4[C@@]2(CCN3CC2CC2)[C@H]1O5)c1cccc(I)c1 [[^125I]IBNtxA]"
  Kd: "0.13 nM"

Origin of measurements: paper PMC8026774
